Can you tell me DC50 for the items I'm about to list?
biological target: HiBit-KRAS^G12C (Homo sapiens, UniProt P01116, G12C); assay: HiBit degradation assay in SW1573 HiBit-KRas^G12C cells; assay type: cell-based; set-up: expressed in transfected cells; host or cells: SW1573 (clone E6), modified pcDNA3.1 vector, TK promoter; details: SW1573 HiBit-KRas^G12C, 0.1% DMSO, 24 hours; read-out: KRas^G12C-HIBit (SW1573; 0.1% DMSO) DC50*
Sequence (P01116 1-186 isoform P01116-2 G12C limits assumed): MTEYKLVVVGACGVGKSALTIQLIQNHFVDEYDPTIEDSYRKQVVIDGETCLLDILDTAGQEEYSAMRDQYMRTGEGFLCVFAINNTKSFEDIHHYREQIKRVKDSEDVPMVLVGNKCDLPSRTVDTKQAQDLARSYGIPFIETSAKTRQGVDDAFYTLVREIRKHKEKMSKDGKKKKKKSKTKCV

State recorded DC50 for all listed molecules.
1. C=CC(=O)N1CCN(c2nc(OCCN3CCC(OCCOCCOCC(=O)N[C@H](C(=O)N4C[C@H](O)C[C@H]4C(=O)N[C@@H](C)c4ccc(-c5scnc5C)cc4)C(C)(C)C)CC3)nc3c(F)c(-c4cc(O)cc5ccccc45)c(Cl)cc23)CC1 [Compound 60]
2. C=CC(=O)N1CCN(c2nc(O[C@H](C)CN3CCC(OCCOCC(=O)N[C@H](C(=O)N4C[C@H](O)C[C@H]4C(=O)N[C@@H](C)c4ccc(-c5scnc5C)cc4)C(C)(C)C)CC3)nc3c(F)c(-c4cc(O)cc5ccccc45)c(Cl)cc23)C[C@H]1C [Compound 45]
3. C=C(F)C(=O)N1CCN(c2nc(OCCN3CCC(OCCOc4cc([C@@H](C(=O)N5C[C@H](O)C[C@H]5C(=O)N[C@@H](C)c5ccc(-c6scnc6C)cc5)C(C)C)on4)CC3)nc3c(F)c(-c4cc(O)cc5ccccc45)c(Cl)cc23)C[C@@H]1CC#N [Compound 1]
4. C=CC(=O)N1CCN(c2nc(O[C@@H](C)CN3CCC(OCCOCC(=O)N[C@H](C(=O)N4C[C@H](O)C[C@H]4C(=O)N[C@@H](C)c4ccc(-c5scnc5C)cc4)C(C)(C)C)CC3)nc3c(F)c(-c4cc(O)cc5ccccc45)c(Cl)cc23)CC1 [Compound 67]
5. C=CC(=O)N1CCN(c2nc(O[C@H](C)CN3CC(OC4CCN(CC(=O)N[C@H](C(=O)N5C[C@H](O)C[C@H]5C(=O)N[C@@H](C)c5ccc(-c6scnc6C)cc5)C(C)(C)C)CC4)C3)nc3c(F)c(-c4cc(O)cc5ccccc45)c(Cl)cc23)CC1 [Compound 46]

# output
1: 100 to 1000 nM; 2: 100 to 1000 nM; 3: > 1000 nM; 4: 100 to 1000 nM; 5: 100 to 1000 nM
